The origin of these recorded values is patent US20250333541A1.

- TGT: T1, tissue factor (TF) on the surface of TF-positive tumor cells (human, UniProt P13726 33-295)
- T1 construct: whole, on cells; The cell line used is named under assay or readout in each row; also called TF on NCI-H358 cells; TF on KYSE520 cells
- METHOD_DESCRIPTION: flow cytometry on NCI-H358 cells
MEASURED_PARAMETER: EC50 (mg/L)
Answer in mg/L, number only, no unit symbol.

Q: Param item = 30G11B7-hz1 (antibody, human IgG1, kappa, V domains shown, Humanized IgG1 kappa) VH: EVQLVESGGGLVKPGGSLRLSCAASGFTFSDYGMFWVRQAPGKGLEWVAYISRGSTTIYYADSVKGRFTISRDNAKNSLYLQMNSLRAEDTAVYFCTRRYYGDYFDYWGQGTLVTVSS VL: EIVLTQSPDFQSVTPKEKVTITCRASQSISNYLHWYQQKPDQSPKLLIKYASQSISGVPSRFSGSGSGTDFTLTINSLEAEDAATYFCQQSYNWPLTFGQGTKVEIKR ; retrieve measured EC50.
A: 0.145

Q: Lookup 27H8H3-hz1 (antibody, human IgG1, kappa, V domains shown, Humanized IgG1 kappa) VH: QVQLVQSGAEVKKPGASVKVSCKASGYTFTTYWMHWVRQAPGQGLEWMGMIDPSDSYTSYAQKFQGRVTLTVDTSTSTAYMELSSLRSEDTAVYYCTRGSGPGLFAYWGQGTLVTVSS VL: DIQETQSPSSLSASVGDRVTITCRASQGISNYLNWYQQKPGKAPKLLIYHTSRLHSGVPSRFSGSVSGTDFTLTISSLQPEDFATYFCQQGNTLPYTFGQGTKVEIKR
A: 0.0991

Q: Lookup 2B12B10-hz1 (antibody, human IgG1, kappa, V domains shown, Humanized IgG1 kappa) VH: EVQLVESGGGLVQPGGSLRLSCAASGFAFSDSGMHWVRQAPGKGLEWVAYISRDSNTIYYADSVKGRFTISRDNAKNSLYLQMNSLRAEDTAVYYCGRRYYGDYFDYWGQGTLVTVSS VL: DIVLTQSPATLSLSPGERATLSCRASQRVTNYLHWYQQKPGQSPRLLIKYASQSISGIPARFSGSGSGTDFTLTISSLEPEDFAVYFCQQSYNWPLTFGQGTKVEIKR
A: 0.187

Q: Lookup 22F11H5-hz1 (antibody, human IgG1, kappa, V domains shown, Humanized IgG1 kappa) VH: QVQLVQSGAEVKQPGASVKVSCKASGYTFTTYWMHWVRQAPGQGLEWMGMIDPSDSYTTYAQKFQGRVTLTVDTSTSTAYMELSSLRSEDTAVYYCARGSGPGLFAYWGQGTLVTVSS VL: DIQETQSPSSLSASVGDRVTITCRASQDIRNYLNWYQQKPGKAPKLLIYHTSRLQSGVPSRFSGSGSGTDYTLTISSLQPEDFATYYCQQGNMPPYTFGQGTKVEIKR
A: 0.0671
